Molecular target: Sin Nombre virus (SNV) glycoproteins Gn and Gc displayed on the surface of Expi293F cells transfected with … (Sin Nombre virus)
Assay: flow
readout-type: EC50 (ng/mL)
Kindly answer with a numeric value in ng/mL, unit omitted.

SNV-36 (antibody, V domains shown) VH: QVQLVESGGGVVQPGRSLRLSCAASGFRFSSYAMHWVRQAPGKGLEWVATIWFDGTNEYYGDSAKGRFTISRDNSMSTLYLQMNSLRVEDTAVYYCARPANGYSDYYYGMDVWGQGTTVTVSS VL: QSALTQPASVSGSPGQSITISCTGTSSDVGTYNLVSWYQQHPGKAPKLMIFEVNKRPSGVSYRFSGSKSGNTASLTISGLQAEDEADYYCCSYADNRTPFLFGTGTKVTVLG: 10
SNV-68 (antibody, V domains shown) VH: QVQLQESGPGLVKPSGTLSLTCLVSGGSIGSSHWWSWVRQSPGKGLEWFGEIHHTESTNYNPSLKSRVTITMDKSKNQFYLKLTSVTAADTAVYYCARAGATFAEPFSLWGQGTMVTVSP VL: DIQMTQSPSTLSASVGDRVTITCRAGQSVTNWLAWYQQKPGKAPKLLIYKASILASGVPSRFSGSGSGTEFTLTISSVQPDDSAVYYCQQYKSHRTFGQGTKVEIK: 6.5
SNV-27 (antibody, V domains shown) VH: QVQLVQSGAEVKKPGASVRVSCKAYGYSFNDYFMHWVRQAPGQGLEWMGRVKPSTGGTRYAQKFQGRVTMTLDTSTSTAYVELSSLSSDDTAVYFCARKLGPLGDCSSSSCYSALDVWGQGTMVTVSS VL: DIQMTQSPSTLSASVGDRVTITCRASESISNWLAWYQQKPGKAPKLLISKASSLESGVPSRFSGSGSGTEFTLTIGSLQPDDFATYYCQQYNTYSWTFGQGTKVDIK: 11
SNV-45 (antibody, V domains shown) VH: ELQLVESGGGLIRPGGSLRLSCTAAGFTFSNYNMNWVRQAPGKGLDWVSYISSSGGTTIYADSVKGRFTISRDNAKDSLYLQMNSLRDDDTAIYYCVRGRGQLATHFDYWGQGTLVTVSS VL: ESVLTQFPDFQSVTPKEKVTITCRASQSIHINLHWYQQKPHQSPKLLIKYASQSIAGVPSRFSGSGSGTEFTLTINGLEAEDAATYYCHQSNSLPWTFGQGTKVEIK: 9.9
SNV-67 (antibody, V domains shown) VH: QVQLVQSGAEVKKPGASVRVSCKASGYTFTAYFMNWVRQAPGQGLEWMGRINPISGDTNFAQNFQGRVTMTRDTSITTVYMELNRLTSDDTAVYYCARVRSGYSYIDFWGQGTLVTVAS VL: SYDLTQPPSVSVSPGQTARITCSGDALSNQYAYWYQQRPGQAPVVVIYKYSERPSGIPERFSGSSSGTTVTLTISGVQAEDEADYYCQSADRLGTYWVFGGGTKLTVL: 15
SNV-53 (antibody, V domains shown) VH: EVQLVQSGAEVKTPGESLKISCKGSGYRFYTYWIAWVRQMPGKGLEWMGIIYPGDSDPRYSPSFQGQVTISADKSISTAYLQWSSLKASDTAMYYCVRVQGTMLDYWGQGTLVTVSS VL: QSVLTQPPSVSGAPGQSVTISCSGSSSNIGAGYDVHWYQQLLGRAPKLLIHGNSNRPSGVPDRFSGSKSGTSGSLAITGLQSEDEADYYCQSYDISLSGWVFGGGTKLTVL: 3.5

QUERY: Can you share its EC50? I mean this binder: SNV-62 (antibody, V domains shown) VH: QVLLVQSGAEVKKPGASVKVSCKASGYTFTSYFIHWVRQAPGQGLEWMGMINPISGNTNYAQKFQGRVTMTRDTSTRTVYMQLSSLTFEDTAVYSCVRWTTVPSSFDFWGQGTLVTVSS VL: SYELTQPPSVSVSPGQTARITCSGDALPNQYVNWYQQKPGQAPVLMMFKDNQRPSGIPERFSGSRSGTTVTLSISGVQAEDEADYHCQSADRTATSVAFGGGTKLTVL
RESULT: 2.6

QUERY: Can you share its EC50? I mean this binder: SNV-32 (antibody, V domains shown) VH: QVQLVQSGAEVKKPGSSVKVSCRASGGTFRSYSISWVRQAPGQGLEWMGDIIPIFSTTNYAQKFQGRVTITADEATSTAYMELSSLRSDDTAVYYCARPSNLLNWFDPWGQGTLVTVSS VL: EIVMTQSPATLSVSPGERATLSCRASQSVNSNLVWYQQKPGQAPRLLIYGASTRATGIPARISGSGSGTEFTLTISSLQSEDFAVYYCQQYDNRPQTFGQGTKVEIK
RESULT: 14

QUERY: Can you share its EC50? I mean this binder: SNV-42 (antibody, V domains shown) VH: EVQLVESGGGLVQPGGSLRLSCAASGFTFSTYEMNWVRQAPGKGLEWISYIRSSGSTVYYADSVKGRFTISRDNAKNLLYLQMNSLRAGDTAVYYCARIPGGYTGYFDYWGQGALVTVSS VL: QSVLTQPPSVSGAPGQRVTISCTGSSSNIGAGYYVHWYQQLPGTVPKLLIYGNNNRPSGVPDRFSGSKSGTSASLAITGLQTEDEADYYCQSYDSSLSGWVFGGGTKLTVL
RESULT: 5.9

QUERY: Can you share its EC50? I mean this binder: SNV-50 (antibody, V domains shown) VH: EMQLLESGGGLIQPGESLRLSCAGSGFTFRNYAMSWVRQAPGKGLQWVSAISASGGITHYADSVKGRFTISRDNSKNTLFLQMNSLRAEDTAVYYCAKGEIMRDTGYHDDAFDVWGQGKMVTVSS VL: DIQLTQSPSFLSASVGDRVTITCRASQGISSYLVWYQQKPGEAPKLLIYTASTLQSGVPSRFSGSGSGTEFTLTISSLQPEDFATYHCQQVESYPYSFGQGTKLEIK
RESULT: 5.2
